All values here come from ChEMBL document CHEMBL1255288.

Let's look at some compounds and their measured MIC.
system: Staphylococcus aureus; assay: Antibacterial activity against Staphylococcus aureus T2019 with G2576T mutation in 23S rRNA genes by Etest method; format: functional
Quick note: give the figure in µg/mL, leave out the unit.

sample_smiles=CC(=O)NC[C@H]1CN(c2ccc(N3CCOCC3)c(F)c2)C(=O)O1 measurement_name=MIC display_unit=µg/mL assay_value=128

Lab note: next compound to report on.
The measured MIC that `CC(=O)O[C@H]1C[C@@]2(C)[C@@H](C[C@@H](O)[C@H]3[C@@]4(C)CC[C@@H](O)[C@@H](C)[C@@H]4CC[C@@]32C)/C1=C(\CCC=C(C)C)C(=O)O` showed for Staphylococcus aureus is 0.5

====

tested on: Staphylococcus aureus; test: Antibacterial activity against Staphylococcus aureus T2019 with G2576T mutation in 23S rRNA genes by Etest method; type: functional
Measurement name: MIC (µg/mL)
Quick note: give the figure in µg/mL, leave out the unit.

compound="C[C@H]1c2cccc(O)c2C(=O)C2=C(O)[C@]3(O)C(=O)C(C(N)=O)=C(O)[C@@H](N(C)C)[C@@H]3[C@@H](O)[C@@H]21.O [DOXYCYCLINE]" assay_value=6

Query CN(C)c1cc(NC(=O)CNC(C)(C)C)c(O)c2c1C[C@H]1C[C@H]3[C@H](N(C)C)C(O)=C(C(N)=O)C(=O)[C@@]3(O)C(O)=C1C2=O [TIGECYCLINE] yields MIC of 0.75
